Entry source: ChEMBL document CHEMBL1138152

biological target: Cholecystokinin receptor (Homo sapiens) (UniProt P32239+P32238); experiment: Agonist activity at CCK receptor of guinea pig ileum at 1 uM; format: functional, tissue-based; settings: Cavia porcellus, target entry is the homologue from another species
Sequence (P32238 whole entry, looked up): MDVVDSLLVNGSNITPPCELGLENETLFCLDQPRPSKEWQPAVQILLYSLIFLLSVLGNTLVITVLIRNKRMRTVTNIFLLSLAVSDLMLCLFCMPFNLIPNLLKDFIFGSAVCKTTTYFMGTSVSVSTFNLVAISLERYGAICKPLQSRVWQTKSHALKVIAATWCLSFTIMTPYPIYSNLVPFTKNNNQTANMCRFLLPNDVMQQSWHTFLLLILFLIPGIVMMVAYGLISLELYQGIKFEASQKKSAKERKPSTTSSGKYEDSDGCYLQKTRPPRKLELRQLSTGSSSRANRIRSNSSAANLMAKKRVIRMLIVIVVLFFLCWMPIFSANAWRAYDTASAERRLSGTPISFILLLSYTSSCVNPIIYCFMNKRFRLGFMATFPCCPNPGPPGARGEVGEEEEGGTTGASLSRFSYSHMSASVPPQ
Sequence (P32239 whole entry, looked up): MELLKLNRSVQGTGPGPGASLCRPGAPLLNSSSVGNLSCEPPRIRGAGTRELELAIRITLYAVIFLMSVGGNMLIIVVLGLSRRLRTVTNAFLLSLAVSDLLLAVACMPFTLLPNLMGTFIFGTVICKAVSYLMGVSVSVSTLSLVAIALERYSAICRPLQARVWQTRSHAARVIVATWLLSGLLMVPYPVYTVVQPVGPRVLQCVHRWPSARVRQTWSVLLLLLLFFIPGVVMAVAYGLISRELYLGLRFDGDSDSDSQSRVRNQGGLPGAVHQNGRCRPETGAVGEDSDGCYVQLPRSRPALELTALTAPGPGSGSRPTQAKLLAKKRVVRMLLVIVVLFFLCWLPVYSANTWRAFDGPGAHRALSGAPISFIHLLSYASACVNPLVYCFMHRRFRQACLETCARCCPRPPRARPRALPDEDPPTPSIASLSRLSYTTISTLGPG
In this section, each of the molecules is paired with its reported Activity.
Measure Name: Activity

CCCC[C@@H](C(=O)N[C@H](Cc1cn(C(=O)OC(C)(C)C)c2ccccc12)C(=O)O)N(C)C(=O)[C@H](CC(=O)O)NC(=O)[C@H](Cc1ccccc1)NN[C@@H](Cc1ccccc1)C(=O)NCC(=O)N[C@H](C)C(=O)N[C@@H](Cc1ccc(O)cc1)C(=O)O: 5%
CCCC[C@H](NC(=O)[C@H](CC(=O)O)NC(=O)[C@H](Cc1ccccc1)NN[C@@H](Cc1ccccc1)C(=O)NCC(=O)N[C@H](C)C(=O)N[C@@H](Cc1ccc(O)cc1)C(=O)O)C(=O)N[C@H](Cc1cn(C(=O)OC23CC4CC(CC(C4)C2)C3)c2ccccc12)C(=O)O: 0%
CCCC[C@H](NC(=O)[C@H](CC(=O)O)NC(=O)[C@H](Cc1ccccc1)NN[C@@H](Cc1ccccc1)C(=O)NCC(=O)N[C@H](C)C(=O)N[C@@H](Cc1ccc(O)cc1)C(=O)O)C(=O)N[C@@H](Cc1cn(C(=O)OC(C)(C)C)c2ccccc12)C(=O)O: 0%
CCCC[C@H](NC(=O)[C@H](CC(=O)O)NC(=O)[C@H](Cc1ccccc1)NN[C@@H](Cc1ccccc1)C(=O)NCC(=O)N[C@H](C)C(=O)N[C@@H](Cc1ccc(O)cc1)C(=O)O)C(=O)N[C@H](Cc1cn(C(=O)OC2C3CC4CC(C3)CC2C4)c2ccccc12)C(=O)O (stereo partly specified): 0%
CCCC[C@@H](C(=O)N[C@@H](Cc1cn(C(C)=O)c2ccccc12)C(=O)O)N(C(=O)Nc1ccccc1Cl)C(=O)[C@H](CC(=O)O)NC(=O)[C@H](Cc1ccccc1)N(C)N[C@@H](Cc1ccccc1)C(=O)NCC(=O)N[C@H](C)C(=O)N[C@@H](Cc1ccc(O)cc1)C(=O)O: 0%
CCCC[C@H](NC(=O)[C@H](CC(=O)O)NC(=O)[C@H](Cc1ccccc1)NN[C@@H](Cc1ccccc1)C(=O)NCC(=O)N[C@H](C)C(=O)N[C@@H](Cc1ccc(O)cc1)C(=O)O)C(=O)N[C@H](Cc1cn(C(=O)OC(C)(C)C)c2ccccc12)C(=O)O: 0%
